Provenance of the data: patent US8084459B2

Attribute: viability at 4 days, 1 µM
Assay: Assay 3(d) test compound cytotoxicity (MTS)
Type: cell-based
Settings: BL6Jx129sv, mouse, primary cortical neuronal cultures, 1 uM, cortical neurons, read-out: Assay 3(d) Cytotoxicity (% viable at 1 uM)
Description: Primary Cortical Neuronal Cultures Cortical cultures were prepared as previously described (White et al., 1998). Embryonic day 14 BL6Jx129sv mouse cortices were removed, dissected free of meninges and dissociated in 0.025% (wt/vol) trypsin. […] Cell viability is determined using the MTS assay. […] 200 microlitre aliquots are measured with a spectrophotometer at 560 nm. […]

| smi | viability at 4 days, 1 µM (%) |
| --- | --- |
| O=c1c2c(Cl)cc(Cl)c(O)c2ncn1CC1CCNCC1 | 97 |
| Br.O=c1c2c(Cl)cc(Cl)c(O)c2ncn1Nc1ccc(F)cc1F | 100 |
| O=c1c2c(Cl)cc(Cl)c(O)c2ncn1N1CCCCC1 | 98 |

====

Attribute: viability at 4 days, 1 µM
Test: Assay 3(d) test compound cytotoxicity (MTS)
Assay type: cell-based
Details: BL6Jx129sv, mouse, primary cortical neuronal cultures, 1 uM, cortical neurons, read-out: Assay 3(d) Cytotoxicity (% viable at 1 uM)
Description: Primary Cortical Neuronal Cultures Cortical cultures were prepared as previously described (White et al., 1998). Embryonic day 14 BL6Jx129sv mouse cortices were removed, dissected free of meninges and dissociated in 0.025% (wt/vol) trypsin. […] Cell viability is determined using the MTS assay. […] 200 microlitre aliquots are measured with a spectrophotometer at 560 nm. […]
measure name: viability at 4 days, 1 µM (%)

| compound | measure name | recorded value |
| --- | --- | --- |
| Cc1cnc(-n2cnc3c(O)c(Cl)cc(Cl)c3c2=O)s1 | viability at 4 days, 1 µM | 94 |
| Cc1nc(Cn2cnc3c(O)c(Cl)cc(Cl)c3c2=O)cs1 | viability at 4 days, 1 µM | 100 |
| CCn1cnc2c(O)c(Cl)cc(Cl)c2c1=O | viability at 4 days, 1 µM | 101 |
| Cc1ccc(-n2cnc3c(O)c(Cl)cc(Cl)c3c2=O)nc1 | viability at 4 days, 1 µM | 96 |
| COc1ccc(-n2cnc3c(O)c(Cl)cc(Cl)c3c2=O)cn1 | viability at 4 days, 1 µM | 122 |
| Br.CCC(C)n1cnc2c(O)c(Cl)cc(Cl)c2c1=O (stereo not shown) | viability at 4 days, 1 µM | 89 |
| Br.O=c1c2c(Cl)cc(Cl)c(O)c2ncn1Cc1cccc(Cn2cnc3c(O)c(Cl)cc(Cl)c3c2=O)n1 | viability at 4 days, 1 µM | 89 |
| O=c1c2c(Cl)cc(Cl)c(O)c2ncn1-c1cccnc1 | viability at 4 days, 1 µM | 95 |
| O=c1c2c(Cl)cc(Cl)c(O)c2ncn1-c1ccc(Cl)cn1 | viability at 4 days, 1 µM | 94 |
| O=c1c2c(Cl)cc(Cl)c(O)c2ncn1Cc1ccccn1 | viability at 4 days, 1 µM | 101 |
| O=c1c2c(Cl)cc(Cl)c(O)c2ncn1CCc1ccccn1 | viability at 4 days, 1 µM | 100 |
| O=c1c2c(Cl)cc(Cl)c(O)c2ncn1CCN1CCCC1 | viability at 4 days, 1 µM | 99 |
| Br.CC(C)n1cnc2c(O)c(Cl)cc(Cl)c2c1=O | viability at 4 days, 1 µM | 100 |
| Br.CCCn1cnc2c(O)c(Cl)cc(Cl)c2c1=O | viability at 4 days, 1 µM | 99 |
| CCCCn1cnc2c(O)c(Cl)cc(Cl)c2c1=O | viability at 4 days, 1 µM | 93 |
| Br.Cc1cccnc1Cn1cnc2c(O)c(Cl)cc(Cl)c2c1=O | viability at 4 days, 1 µM | 99 |
| Cc1noc(C)c1Cn1cnc2c(O)c(Cl)cc(Cl)c2c1=O | viability at 4 days, 1 µM | 99 |
| CN1CCCC1CCn1cnc2c(O)c(Cl)cc(Cl)c2c1=O (stereo not shown) | viability at 4 days, 1 µM | 94 |
| Br.CC(C)Cn1cnc2c(O)c(Cl)cc(Cl)c2c1=O | viability at 4 days, 1 µM | 92 |
